Each recorded value in this set is attributed to PubChem BioAssay AID2060494.

System: 435261-313-R-J1-PDC complex spheroid viability
ASSAY METHOD TEXT: Anticancer human tumor 435261-313-R-J1-PDC patient-derived colon adenocarcinoma cell line growth inhibition [GQUAD]
TEST CONTEXT: second compound 0.0316 µM; first compound 0.0316 µM; stronger effect = lower value
PARAMETER MEASURED: viability, T/C

// known answers, use as guide
- MOLECULE: "CC(=O)O[C@H]1C(=O)[C@@]2(C)[C@H]([C@H](OC(=O)c3ccccc3)[C@]3(O)C[C@H](OC(=O)[C@H](O)[C@@H](NC(=O)c4ccccc4)c4ccccc4)C(C)=C1C3(C)C)[C@]1(OC(C)=O)CO[C@@H]1C[C@@H]2O + Cc1[nH]c2ccc(F)cc2c1-c1nc2c3cccnc3c3ncccc3c2[nH]1"
  PARAMETER MEASURED: "viability, T/C"
  RESULT: "67.5%"
- MOLECULE: "COc1ccc([C@@H](O)c2cc(-c3ncnc4cc(N5CCOCC5)ccc34)c(F)cc2Cl)nn1 + Cc1[nH]c2ccc(F)cc2c1-c1nc2c3cccnc3c3ncccc3c2[nH]1"
  PARAMETER MEASURED: "viability, T/C"
  RESULT: "88.7%"
- MOLECULE: "COc1ncnc(C2CC2)c1-c1ncc2cnn(Cc3ccc(-c4nc(C(F)(F)F)cn4C(C)C)cc3)c2n1 + Cc1cnc(CNC(=O)c2c(=O)c3ccc(N4CCCN(C)CC4)nc3n3c2sc2ccccc23)cn1"
  PARAMETER MEASURED: "viability, T/C"
  RESULT: "63.8%"
- MOLECULE: "O=c1[nH]cc(F)c(=O)[nH]1 + Cc1[nH]c2ccc(F)cc2c1-c1nc2c3cccnc3c3ncccc3c2[nH]1"
  PARAMETER MEASURED: "viability, T/C"
  RESULT: "112%"
- MOLECULE: "Cn1ncnc1[C@H]1c2n[nH]c(=O)c3cc(F)cc(c23)N[C@@H]1c1ccc(F)cc1 + CN(C)c1ccc(Nc2c3ccc(NC(=O)CCN4CCCC4)cc3nc3cc(NC(=O)CCN4CCCC4)ccc23)cc1"
  PARAMETER MEASURED: "viability, T/C"
  RESULT: "78.1%"

QUERY: Which viability, T/C value belongs to C#Cc1c(F)ccc2cc(O)cc(-c3ncc4c(N5CC6CCC(C5)N6)nc(OCC56CCCN5CC(F)C6)nc4c3F)c12 (centres undefined) + Cc1cnc(CNC(=O)c2c(=O)c3ccc(N4CCCN(C)CC4)nc3n3c2sc2ccccc23)cn1 ?
RESULT: 74.5%

QUERY: Which viability, T/C value belongs to O=C(NO)c1cnc(N2CCN(S(=O)(=O)c3ccc4ccccc4c3)CC2)nc1 + Cc1[nH]c2ccc(F)cc2c1-c1nc2c3cccnc3c3ncccc3c2[nH]1 ?
RESULT: 72.4%

QUERY: Which viability, T/C value belongs to CC(C)(O)C1CCC(Nc2ccc3ncc(-c4cccc(C(F)(F)F)c4)n3n2)CC1 (centres undefined) + Cc1[nH]c2ccc(F)cc2c1-c1nc2c3cccnc3c3ncccc3c2[nH]1 ?
RESULT: 85.1%

QUERY: Which viability, T/C value belongs to C=CC(=O)N1CCN(c2nc(=O)n(-c3c(C)ccnc3C(C)C)c3nc(-c4c(O)cccc4F)c(F)cc23)C(C)C1 (centres undefined) + CN(C)c1ccc(Nc2c3ccc(NC(=O)CCN4CCCC4)cc3nc3cc(NC(=O)CCN4CCCC4)ccc23)cc1 ?
RESULT: 98.5%

QUERY: Which viability, T/C value belongs to CC(=O)O[C@H]1C(=O)[C@@]2(C)[C@H]([C@H](OC(=O)c3ccccc3)[C@]3(O)C[C@H](OC(=O)[C@H](O)[C@@H](NC(=O)c4ccccc4)c4ccccc4)C(C)=C1C3(C)C)[C@]1(OC(C)=O)CO[C@@H]1C[C@@H]2O + CN(C)c1ccc(Nc2c3ccc(NC(=O)CCN4CCCC4)cc3nc3cc(NC(=O)CCN4CCCC4)ccc23)cc1 ?
RESULT: 94.3%

QUERY: Which viability, T/C value belongs to COc1ncnc(C2CC2)c1-c1ncc2cnn(Cc3ccc(-c4nc(C(F)(F)F)cn4C(C)C)cc3)c2n1 + CN(C)c1ccc(Nc2c3ccc(NC(=O)CCN4CCCC4)cc3nc3cc(NC(=O)CCN4CCCC4)ccc23)cc1 ?
RESULT: 101%

QUERY: Which viability, T/C value belongs to Cc1cccc(N(C)C(=O)C2C(O)CCN2c2nc(C)cc(C(F)(F)F)c2C#N)c1 (centres undefined) + CN(C)c1ccc(Nc2c3ccc(NC(=O)CCN4CCCC4)cc3nc3cc(NC(=O)CCN4CCCC4)ccc23)cc1 ?
RESULT: 97.7%

QUERY: Which viability, T/C value belongs to CC1COCCN1c1cc(C2(O)CC3CCC(C2)O3)c2cnn(-c3ccn[nH]3)c2n1 (centres undefined) + Cc1cnc(CNC(=O)c2c(=O)c3ccc(N4CCCN(C)CC4)nc3n3c2sc2ccccc23)cn1 ?
RESULT: 59.8%

QUERY: Which viability, T/C value belongs to CC[C@@]1(O)C(=O)OCc2c1cc1n(c2=O)Cc2cc3c(CN(C)C)c(O)ccc3nc2-1 + Cc1[nH]c2ccc(F)cc2c1-c1nc2c3cccnc3c3ncccc3c2[nH]1 ?
RESULT: 74.6%

====

Tested on: 435261-313-R-J1-PDC complex spheroid viability
ASSAY METHOD TEXT: Anticancer human tumor 435261-313-R-J1-PDC cell line growth inhibition [GQUAD];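 also: spheroids exposed to the agents for seven days before readout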;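 as to viability, T/C: percent of vehicle control viability with DMSO wells as 100%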
TEST CONTEXT: second compound 10 µM; first compound 0.0999 µM; stronger effect = lower value
PARAMETER MEASURED: viability, T/C (%)
Numeric only. Scale: %

- COMPOUND: "CCc1c2c(nc3ccc(O)cc13)-c1cc3c(c(=O)n1C2)COC(=O)[C@]3(O)CC + CN(C)c1ccc(Nc2c3ccc(NC(=O)CCN4CCCC4)cc3nc3cc(NC(=O)CCN4CCCC4)ccc23)cc1"
  viability, T/C, %: 18.6
- COMPOUND: "Cc1[nH]c2ccccc2c1CCNCc1ccc(/C=C/C(=O)NO)cc1 + CN(C)c1ccc(Nc2c3ccc(NC(=O)CCN4CCCC4)cc3nc3cc(NC(=O)CCN4CCCC4)ccc23)cc1"
  viability, T/C, %: 22.6
- COMPOUND: "Cc1[nH]c2ccccc2c1CCNCc1ccc(/C=C/C(=O)NO)cc1 + Cc1[nH]c2ccc(F)cc2c1-c1nc2c3cccnc3c3ncccc3c2[nH]1"
  viability, T/C, %: 27.8

QUERY: Which viability, T/C value belongs to CCc1c2c(nc3ccc(O)cc13)-c1cc3c(c(=O)n1C2)COC(=O)[C@]3(O)CC + Cc1cnc(CNC(=O)c2c(=O)c3ccc(N4CCCN(C)CC4)nc3n3c2sc2ccccc23)cn1 ?
RESULT: 0.2

QUERY: Which viability, T/C value belongs to CCc1c2c(nc3ccc(O)cc13)-c1cc3c(c(=O)n1C2)COC(=O)[C@]3(O)CC + Cc1[nH]c2ccc(F)cc2c1-c1nc2c3cccnc3c3ncccc3c2[nH]1 ?
RESULT: 16.1

QUERY: Which viability, T/C value belongs to CC[C@@]1(O)C(=O)OCc2c1cc1n(c2=O)Cc2cc3c(CN(C)C)c(O)ccc3nc2-1 + Cc1[nH]c2ccc(F)cc2c1-c1nc2c3cccnc3c3ncccc3c2[nH]1 ?
RESULT: 20.7

====

System: 435261-313-R-J1-PDC complex spheroid viability
ASSAY METHOD TEXT: Anticancer human tumor 435261-313-R-J1-PDC cell line growth inhibition [GQUAD];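 also: spheroids exposed to the agents for seven days before readout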
TEST CONTEXT: curve of first compound; second compound 0.0316 µM
Catalogue of compounds with associated IC50

- COMPOUND: "CC(C)(O)C1CCC(Nc2ccc3ncc(-c4cccc(C(F)(F)F)c4)n3n2)CC1 (stereo not drawn) + Cc1[nH]c2ccc(F)cc2c1-c1nc2c3cccnc3c3ncccc3c2[nH]1"
  IC50: "0.605 µM"
- COMPOUND: "C=CCn1c(=O)c2cnc(Nc3ccc(N4CCN(C)CC4)cc3)nc2n1-c1cccc(C(C)(C)O)n1 + Cc1cnc(CNC(=O)c2c(=O)c3ccc(N4CCCN(C)CC4)nc3n3c2sc2ccccc23)cn1"
  IC50: "> 10 µM"

API: the following record is the query input.
QUERY: Query for 435261-313-R-J1-PDC complex spheroid viability: what IC50 does the record show for O=c1[nH]cc(F)c(=O)[nH]1 + Cc1cnc(CNC(=O)c2c(=O)c3ccc(N4CCCN(C)CC4)nc3n3c2sc2ccccc23)cn1 ?
RESULT: > 10 µM

====

Tested on: 435261-313-R-J1-PDC complex spheroid viability
ASSAY METHOD TEXT: Anticancer human tumor 435261-313-R-J1-PDC cell line growth inhibition [GQUAD];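 also: spheroids exposed to the agents for seven days before readout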;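 as to viability, T/C: percent of vehicle control viability with DMSO wells as 100%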
TEST CONTEXT: second compound 0.1 µM; first compound 0.1 µM; stronger effect = lower value
Binning scheme for viability, T/C: group 1 (below 70%), group 2 (70% to below 90%), group 3 (90% or more)

- COMPOUND: "CC(C)(O)C1CCC(Nc2ccc3ncc(-c4cccc(C(F)(F)F)c4)n3n2)CC1 (stereo not given) + Cc1[nH]c2ccc(F)cc2c1-c1nc2c3cccnc3c3ncccc3c2[nH]1"
  GROUP: "group 2"

QUERY: Bin this entry: C=CC(=O)N1CCN(c2nc(=O)n(-c3c(C)ccnc3C(C)C)c3nc(-c4c(O)cccc4F)c(F)cc23)C(C)C1 (stereo not given) + Cc1[nH]c2ccc(F)cc2c1-c1nc2c3cccnc3c3ncccc3c2[nH]1
RESULT: group 3

QUERY: Bin this entry: CCCS(=O)(=O)Nc1ccc(F)c(C(=O)c2c[nH]c3ncc(-c4ccc(Cl)cc4)cc23)c1F + Cc1[nH]c2ccc(F)cc2c1-c1nc2c3cccnc3c3ncccc3c2[nH]1
RESULT: group 3

QUERY: Bin this entry: CC1COCCN1c1cc(-c2ccnn2C)c2ccnc(-c3ccn[nH]3)c2n1 (stereo not given) + Cc1cnc(CNC(=O)c2c(=O)c3ccc(N4CCCN(C)CC4)nc3n3c2sc2ccccc23)cn1
RESULT: group 1

QUERY: Bin this entry: O=c1[nH]cc(F)c(=O)[nH]1 + Cc1cnc(CNC(=O)c2c(=O)c3ccc(N4CCCN(C)CC4)nc3n3c2sc2ccccc23)cn1
RESULT: group 1

QUERY: Bin this entry: O=C(NO)c1cnc(N2CCN(S(=O)(=O)c3ccc4ccccc4c3)CC2)nc1 + Cc1[nH]c2ccc(F)cc2c1-c1nc2c3cccnc3c3ncccc3c2[nH]1
RESULT: group 2
